test system: R275C/beta1; assay: modulators of BK channel variants, profiling panel, selectivity assay, cell-based, U2OS BacMam, thallium flux, beta subunits (AID 1259406); conditions: at 30 µM;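 further: initial slope of Thallos dye fluorescence rise after thallium is added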
Entries are sorted into classes by log fold change Tl+ flux as follows: A = under -0.01, B = from -0.01 up to 0.04, C = 0.04 and over

Here's what some known entries look like.
[in] Hi there! Could you help me figure out the category for N#CC(=Cc1cccs1)C(N)=O please?
[out] B

[in] Which category does the recorded log fold change Tl+ flux put CN(C)S(=O)(=O)c1ccc2c(c1)/C(=C\CCN1CCNCC1)c1ccccc1S2 in?
[out] C

Others:
[in] Assign a category based on measured log fold change Tl+ flux for CCC(C)(C)N=C(NC#N)Nc1cccnc1 and give only the class name.
[out] A

[in] Determine which band this compound sits in: O=S(=O)(Cc1nc(-c2ccc3c(c2)OCCO3)cs1)c1ccccn1
[out] A

[in] GET /class?item= CO[C@H]1/C=C/O[C@@]2(C)Oc3c(C)c(O)c4c(O)c(c5c(c4c3C2=O)NC2(CCN(CC(C)C)CC2)N=5)=NC(=O)/C(C)=C\C=C\[C@H](C)[C@H](O)[C@@H](C)[C@@H](O)[C@@H](C)[C@H](OC(C)=O)[C@@H]1C
[out] C

[in] Band for the recorded log fold change Tl+ flux of CCOC(=O)CSc1nnc(OCC)n1-c1ccccc1 ?
[out] B

[in] Class? Entry: N#CC1=C(Nc2ccccc2Cl)SC(c2ccncc2)NC1=O (stereo not given)
[out] C

[in] Classify this compound: CCCCCCCCCCCCSC(=S)NCC1CCCO1 (stereo not given)
[out] A

[in] Given CC(C(O)c1ccc(O)cc1)N1CCC(Cc2ccccc2)CC1 (stereo not given) , name the class its log fold change Tl+ flux places it in.
[out] A

[in] Class label required: CCSc1n[nH]c(=S)s1
[out] B

[in] Quick check: band for CC1c2cccc(O)c2C(O)=C2C(=O)[C@]3(O)C(O)=C(C(N)=O)C(=O)[C@@H](N(C)C)[C@@H]3C[C@@H]21 (stereo not given in full)
[out] A

[in] Lab log: CCc1cc(C(=O)c2ccc(OC)cc2)c(NC(=O)CN2CCN(C)CC2)s1 — assign log fold change Tl+ flux category
[out] B

[in] // bin(item) where item = CC(C)(C)NC(=S)NNc1c(Cl)cncc1Cl
[out] C

[in] Assign a category based on measured log fold change Tl+ flux for Cc1cccc(CCN2CCC(C(=O)c3ccc(NS(C)(=O)=O)cc3)CC2)n1 and give only the class name.
[out] B

[in] Which class holds C[C@H]1O[C@H](O[C@H]2[C@H](O)[C@@H](O)[C@@H](O[C@H]3[C@H](O)[C@@H](O)C(O)O[C@@H]3CO)O[C@@H]2CO)[C@H](O)[C@@H](O)[C@@H]1N[C@H]1C=C(CO)[C@@H](O)[C@H](O)[C@H]1O (stereo not given in full) ?
[out] B

[in] Each compound maps to one class by log fold change Tl+ flux. Which class for O=C(O)Cc1ccc([N+](=O)[O-])cc1 ?
[out] B

[in] Which log fold change Tl+ flux band matches CCCCCN=C(N)NN=Cc1c[nH]c2ccc(OC)cc12 ?
[out] C

[in] Band assignment needed for CC(=O)CCCCn1cnc2c1c(=O)n(C)c(=O)n2C please.
[out] A
